testedOn: T1, Anti-CD28 scFv (VH - linker 1 - VL) (biotinylated (site not stated))
T1 construct: Biotinylated anti-CD28 scFv captured on neutravidin coated plates in the panning ELISA
procedureSummary: phage ELISA as above; wells pre-incubated with soluble CD28 as competitor;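 note: crude clonal phage supernatants tested, with bound phage detected by HRP-conjugated anti-M13 antibody, and reference wells given blocking buffer without CD28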
# binarize CD28 scFv signal in presence of CD28: threshold 0.2 inclusive, high side rule met, low side rule not met

binder: MDWCPRALWDHCFN (Clonal phage of the Peptide-9 library) [Phage-328]
group: rule met

binder: MDWCPRHLWYECFS (Clonal phage of the Peptide-9 library) [Phage-324]
group: rule not met

binder: MDWCPAYLWDECFA (Clonal phage of the Peptide-9 library) [Phage-325]
group: rule not met

binder: MSWCPRDLWHLCFF (Clonal phage of the Peptide-9 library) [Phage-319]
group: rule met

binder: MDWCPTYLWNVCFA (Clonal phage of the Peptide-9 library) [Phage-323]
group: rule not met

binder: MDWCPTYLWHVCFS (Clonal phage of the Peptide-9 library) [Phage-315]
group: rule not met

binder: MDWCPTDLWHECFA (Clonal phage of the Peptide-9 library) [Phage-333]
group: rule not met

binder: MDWCPRFLWDVCFN (Clonal phage of the Peptide-9 library; also called the position column gives F at position 7)) [Phage-330]
group: rule met

binder: MDWCPRDLWYVCFA (Clonal phage of the Peptide-9 library) [Phage-321]
group: rule not met

binder: MDWCPRHLWHECFT (Clonal phage of the Peptide-9 library) [Phage-317]
group: rule met

binder: MDWCPRDLWYQCFN (Clonal phage of the Peptide-9 library) [Phage-311]
group: rule met

binder: MFWCPITLWNECFN (Clonal phage of the Peptide-9 library) [Phage-326]
group: rule not met

binder: MDWCPRYLWDECFS (Clonal phage of the Peptide-9 library) [Phage-334]
group: rule not met

binder: MDWCPIHLWNECFN (Clonal phage of the Peptide-9 library) [Phage-314]
group: rule not met

binder: IDWCPRALWDACLA (Clonal phage of the Peptide-9 library) [Phage-332]
group: rule not met

binder: MDWCPRHLWIECFN (Clonal phage of the Peptide-9 library) [Phage-322]
group: rule met
